Tested on: LG0567-F671-PDC KRAS tumor spheroid viability;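 note: drug exposure lasted seven days after spheroids formed for three days; 100% = DMSO vehicle control viability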
Test: Anticancer human tumor LG0567-F671-PDC patient-derived lung adenocarcinoma cell line growth inhibition [KRAS2]
Details: second compound 0.1 µM; first compound 0.0316 µM; hits give low values; spheroids with HUVEC and MSC

molecule	viability, T/C
CC1(C)CCC(CN2CCN(c3ccc(C(=O)NS(=O)(=O)c4ccc(NCC5CCOCC5)c([N+](=O)[O-])c4)c(Oc4cnc5[nH]ccc5c4)c3)CC2)=C(c2ccc(Cl)cc2)C1 + CNCc1ccccc1-c1csc(C(C)Nc2nc(C)nc3cc(OC)c(OC)cc23)c1	72.6%
CC(=O)Nc1cccc(-n2c(=O)n(C3CC3)c(=O)c3c(Nc4ccc(I)cc4F)n(C)c(=O)c(C)c32)c1 + C=CC(=O)N1CCN(c2nc(=O)n(-c3c(C)ccnc3C(C)C)c3nc(-c4c(O)cccc4F)c(F)cc23)C(C)C1	4.13%
CC(C)NCC(C(=O)N1CCN(c2ncnc3c2C(C)CC3O)CC1)c1ccc(Cl)cc1 (stereo unspecified) + C=CC(=O)N1CCN(c2nc(OCC3CCCN3C)nc3c2CCN(c2cccc4cccc(C)c24)C3)CC1CC#N	28.5%
CC(C)NCC(C(=O)N1CCN(c2ncnc3c2C(C)CC3O)CC1)c1ccc(Cl)cc1 (stereo unspecified) + C=CC(=O)N1CCN(c2nc(=O)n(-c3c(C)ccnc3C(C)C)c3nc(-c4c(O)cccc4F)c(F)cc23)C(C)C1	31.4%
CC(=O)OC12COC1CC(O)C1(C)C(=O)C(O)C3=C(C)C(OC(=O)C(O)C(NC(=O)OC(C)(C)C)c4ccccc4)CC(O)(C(OC(=O)c4ccccc4)C21)C3(C)C (stereo unspecified) + CNCc1ccccc1-c1csc(C(C)Nc2nc(C)nc3cc(OC)c(OC)cc23)c1	46.4%
CCNC(=O)CC1N=C(c2ccc(Cl)cc2)c2cc(OC)ccc2-n2c(C)nnc21 (stereo unspecified) + CC1OCC2(CCN(c3cnc(Sc4ccnc(N)c4Cl)c(N)n3)CC2)C1N	69.1%

Origin of values: PubChem BioAssay AID1963856
